System: P388 leukemia ip, CD2F1 mice, survival T/C
test summary: NCI In Vivo Anticancer Drug Screen. Data for tumor model P388 Leukemia (intraperitoneal) in CD2F1 (CDF1) mice
setup conditions: endpoint: median survival time; dose: 200.0 mg/kg/injection; schedule: Q01DX001 (ip); vehicle: Klucel (hydroxypropylcellulose) (HPC); higher = longer survival
Inconclusive results and toxic doses are left out.
metric name: T/C

- molecule: "NC(=O)C(CC(C(=O)O)c1ccccc1)c1ccccc1 (stereo unspecified)"
  target under test: "P388 leukemia ip, CD2F1 mice, survival T/C"
  obs value: "96 % of control"
- molecule: "COCc1nnc2c(N)nccn12"
  target under test: "P388 leukemia ip, CD2F1 mice, survival T/C"
  obs value: "93 % of control"

Using P388 leukemia ip, CD2F1 mice, survival T/C as the test system, report measured T/C of O=c1c(N=Nc2ccccc2Cl)c(O)n(-c2ccccc2Cl)c(=S)n1-c1ccc(Cl)cc1 . 104 % of control

Using P388 leukemia ip, CD2F1 mice, survival T/C as the test system, report measured T/C of COc1cccc(OCC(=O)O)c1OC . 97 % of control

Using P388 leukemia ip, CD2F1 mice, survival T/C as the test system, report measured T/C of O=Cc1c(Cl)n(C(=O)c2ccc(F)cc2)c2ccccc12 . 113 % of control

Using P388 leukemia ip, CD2F1 mice, survival T/C as the test system, report measured T/C of Oc1ccccc1/C=N/Nc1nnnn1-c1ccccc1 . 102 % of control
